biological target: VEGFR-2 (Homo sapiens, UniProt P35968); assay: In vitro kinase assay ([γ-33P]-ATP); type: biochemical; settings: ATP at apparent Km of the kinase
Sequence (P35968 20-1356): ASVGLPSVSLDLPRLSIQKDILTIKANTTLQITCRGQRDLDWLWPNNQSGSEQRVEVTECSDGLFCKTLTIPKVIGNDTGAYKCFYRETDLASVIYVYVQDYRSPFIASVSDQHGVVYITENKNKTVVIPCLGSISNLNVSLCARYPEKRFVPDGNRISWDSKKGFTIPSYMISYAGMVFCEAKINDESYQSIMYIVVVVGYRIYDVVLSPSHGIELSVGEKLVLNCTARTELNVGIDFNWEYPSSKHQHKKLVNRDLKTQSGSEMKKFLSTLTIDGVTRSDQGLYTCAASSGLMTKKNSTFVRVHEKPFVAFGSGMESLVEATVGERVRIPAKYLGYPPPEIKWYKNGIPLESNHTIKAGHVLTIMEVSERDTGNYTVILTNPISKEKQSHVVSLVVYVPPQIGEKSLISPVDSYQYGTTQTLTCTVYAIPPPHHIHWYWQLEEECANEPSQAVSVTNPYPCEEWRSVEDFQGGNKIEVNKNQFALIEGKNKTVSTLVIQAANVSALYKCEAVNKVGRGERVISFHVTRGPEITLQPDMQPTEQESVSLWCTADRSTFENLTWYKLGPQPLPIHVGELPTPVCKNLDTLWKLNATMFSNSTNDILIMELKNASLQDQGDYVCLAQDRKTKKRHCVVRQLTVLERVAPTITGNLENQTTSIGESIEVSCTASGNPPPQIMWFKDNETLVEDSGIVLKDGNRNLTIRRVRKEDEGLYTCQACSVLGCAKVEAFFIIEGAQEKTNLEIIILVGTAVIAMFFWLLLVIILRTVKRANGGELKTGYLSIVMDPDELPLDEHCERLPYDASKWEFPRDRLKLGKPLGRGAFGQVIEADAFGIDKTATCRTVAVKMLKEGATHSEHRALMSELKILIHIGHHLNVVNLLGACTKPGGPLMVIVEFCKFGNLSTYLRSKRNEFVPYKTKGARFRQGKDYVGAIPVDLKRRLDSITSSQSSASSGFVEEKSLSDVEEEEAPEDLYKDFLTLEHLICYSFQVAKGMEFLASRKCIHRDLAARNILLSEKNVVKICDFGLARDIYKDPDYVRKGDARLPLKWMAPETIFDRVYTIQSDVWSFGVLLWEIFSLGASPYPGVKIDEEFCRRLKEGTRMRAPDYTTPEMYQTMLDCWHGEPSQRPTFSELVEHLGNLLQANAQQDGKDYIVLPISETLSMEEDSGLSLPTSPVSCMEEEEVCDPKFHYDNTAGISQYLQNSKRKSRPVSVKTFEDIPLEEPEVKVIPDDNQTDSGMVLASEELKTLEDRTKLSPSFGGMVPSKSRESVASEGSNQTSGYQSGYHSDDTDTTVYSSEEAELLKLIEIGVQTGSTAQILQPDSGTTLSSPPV
Listed here: items and their measured IC50.

Worked cases, answers included:
{"COMPOUND": "O=C(Nc1cc(C(F)(F)F)c(Cl)cn1)C1(Oc2ccc(-c3cnc4cnccn34)cn2)CC1 [Example 12]", "RESULT": "> 5000 nM"}
{"COMPOUND": "Cn1nc(NC(=O)COc2ccc(-c3cnc4ccccn34)cn2)cc1C(F)(F)F [Example 1]", "RESULT": "< 500 nM"}
{"COMPOUND": "Cn1nc(NC(=O)CNc2ccc(-c3cnc4cnccn34)cc2)cc1C(F)(F)F [Example 17]", "RESULT": "< 500 nM"}
{"COMPOUND": "Cc1ccc(NC(=O)CNc2ccc(-c3cnc4cnccn34)cc2)cc1C(F)(F)F [Example 15]", "RESULT": "< 500 nM"}

Give VEGFR-2 (Homo sapiens, UniProt P35968) IC50 for Cc1ccc(NC(=O)c2ccc(Nc3cnc4cnccn34)cc2)cc1C(F)(F)F [Example 14]
> 5000 nM

====

target: CDK19 (Homo sapiens, UniProt Q9BWU1); experiment: In vitro kinase assay ([γ-33P]-ATP); format: biochemical; conditions: ATP at apparent Km of the kinase
Sequence (Q9BWU1 whole entry, species assumed): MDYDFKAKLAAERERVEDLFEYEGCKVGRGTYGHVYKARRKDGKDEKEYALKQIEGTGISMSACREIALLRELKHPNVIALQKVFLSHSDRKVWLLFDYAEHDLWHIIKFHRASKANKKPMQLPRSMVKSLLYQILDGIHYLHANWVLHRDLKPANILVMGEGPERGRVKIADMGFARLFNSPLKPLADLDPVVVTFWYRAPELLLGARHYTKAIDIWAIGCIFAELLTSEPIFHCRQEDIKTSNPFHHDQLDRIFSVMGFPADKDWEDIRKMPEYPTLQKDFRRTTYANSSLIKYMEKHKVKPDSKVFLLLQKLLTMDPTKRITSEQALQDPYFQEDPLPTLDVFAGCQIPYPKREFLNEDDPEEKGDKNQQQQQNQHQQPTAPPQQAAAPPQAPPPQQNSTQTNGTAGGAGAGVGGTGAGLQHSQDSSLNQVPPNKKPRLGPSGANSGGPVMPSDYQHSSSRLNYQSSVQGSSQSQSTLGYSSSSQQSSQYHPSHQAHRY
Sequence (P24863 whole entry partner, species assumed): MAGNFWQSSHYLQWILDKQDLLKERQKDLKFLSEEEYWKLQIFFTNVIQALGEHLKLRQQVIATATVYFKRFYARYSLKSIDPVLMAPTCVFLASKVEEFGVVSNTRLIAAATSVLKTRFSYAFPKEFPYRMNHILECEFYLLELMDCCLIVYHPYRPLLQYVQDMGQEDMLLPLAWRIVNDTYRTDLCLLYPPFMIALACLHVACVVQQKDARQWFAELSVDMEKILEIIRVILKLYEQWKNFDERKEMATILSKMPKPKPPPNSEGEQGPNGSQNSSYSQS
MEASURED_PARAMETER: IC50

# input compound: Cn1nc(NC(=O)CNc2ccc(-c3cnc4cnccn34)cc2)cc1C(F)(F)F ; wanted: its IC50
< 500 nM

Request: CC(Oc1ccc(-c2cnc3cnccn23)cn1)C(=O)Nc1cc(C(F)(F)F)c(Cl)cn1 (stereo not shown)
500 to 5000 nM

====

Listed here: items and their measured IC50.
Target: Flt3 (Homo sapiens)
Sequence (P36888 27-993): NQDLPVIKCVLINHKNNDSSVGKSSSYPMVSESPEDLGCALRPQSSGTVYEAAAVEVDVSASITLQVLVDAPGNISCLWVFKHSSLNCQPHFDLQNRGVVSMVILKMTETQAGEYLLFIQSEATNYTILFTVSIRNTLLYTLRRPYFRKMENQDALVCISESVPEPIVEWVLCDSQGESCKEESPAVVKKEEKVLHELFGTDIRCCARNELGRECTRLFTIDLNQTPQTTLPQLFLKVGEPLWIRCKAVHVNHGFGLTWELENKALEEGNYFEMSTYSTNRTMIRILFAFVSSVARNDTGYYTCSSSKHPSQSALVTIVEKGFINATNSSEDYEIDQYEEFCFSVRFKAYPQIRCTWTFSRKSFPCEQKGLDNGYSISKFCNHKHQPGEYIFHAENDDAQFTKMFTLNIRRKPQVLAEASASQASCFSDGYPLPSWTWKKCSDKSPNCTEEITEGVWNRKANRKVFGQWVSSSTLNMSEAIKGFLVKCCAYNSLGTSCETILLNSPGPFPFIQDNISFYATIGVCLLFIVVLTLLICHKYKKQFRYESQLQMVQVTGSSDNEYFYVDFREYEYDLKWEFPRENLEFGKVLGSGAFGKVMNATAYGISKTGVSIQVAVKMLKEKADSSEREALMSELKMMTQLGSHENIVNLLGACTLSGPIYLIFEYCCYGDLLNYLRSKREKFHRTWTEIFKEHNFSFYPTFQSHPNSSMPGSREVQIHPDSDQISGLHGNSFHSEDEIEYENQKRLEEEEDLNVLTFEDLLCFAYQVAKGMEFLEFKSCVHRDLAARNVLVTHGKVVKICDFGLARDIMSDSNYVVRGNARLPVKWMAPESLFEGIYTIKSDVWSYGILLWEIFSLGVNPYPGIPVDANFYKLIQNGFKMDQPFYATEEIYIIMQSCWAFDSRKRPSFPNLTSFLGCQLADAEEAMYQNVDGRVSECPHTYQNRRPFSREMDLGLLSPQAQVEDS
Assay: In vitro kinase assay ([γ-33P]-ATP)
Assay type: biochemical
Details: ATP at apparent Km of the kinase
Description: To determine the inhibitory activity of compounds, in vitro kinase assays were performed on respective enzymes purified from Sf9 insect cells or E. coli as recombinant GST-fusion proteins or His-tagged proteins.

Worked cases, answers included:
{"MOLECULE": "Cn1nc(NC(=O)CNc2ccc(-c3cnc4cnccn34)cc2)cc1C(F)(F)F [Example 17]", "EXPERIMENTAL_SYSTEM": "Flt3 (Homo sapiens)", "IC50": "< 500 nM"}
{"MOLECULE": "Cc1ccc(NC(=O)c2ccc(Nc3cnc4cnccn34)cc2)cc1C(F)(F)F [Example 14]", "EXPERIMENTAL_SYSTEM": "Flt3 (Homo sapiens)", "IC50": "> 5000 nM"}

# input molecule: Cc1ccc(NC(=O)CNc2ccc(-c3cnc4cnccn34)cc2)cc1C(F)(F)F [Example 15] ; wanted: its IC50
< 500 nM

Request: CC(Oc1ccc(-c2cnc3cnccn23)cn1)C(=O)Nc1cc(C(F)(F)F)c(Cl)cn1 (stereo not shown) [Example 13]
> 5000 nM

====

Listed here: items and their measured IC50.
target: PDGFRβ (Homo sapiens, UniProt P09619); test: In vitro kinase assay ([γ-33P]-ATP); type: biochemical; conditions: ATP at apparent Km of the kinase
Sequence (P09619 33-1106): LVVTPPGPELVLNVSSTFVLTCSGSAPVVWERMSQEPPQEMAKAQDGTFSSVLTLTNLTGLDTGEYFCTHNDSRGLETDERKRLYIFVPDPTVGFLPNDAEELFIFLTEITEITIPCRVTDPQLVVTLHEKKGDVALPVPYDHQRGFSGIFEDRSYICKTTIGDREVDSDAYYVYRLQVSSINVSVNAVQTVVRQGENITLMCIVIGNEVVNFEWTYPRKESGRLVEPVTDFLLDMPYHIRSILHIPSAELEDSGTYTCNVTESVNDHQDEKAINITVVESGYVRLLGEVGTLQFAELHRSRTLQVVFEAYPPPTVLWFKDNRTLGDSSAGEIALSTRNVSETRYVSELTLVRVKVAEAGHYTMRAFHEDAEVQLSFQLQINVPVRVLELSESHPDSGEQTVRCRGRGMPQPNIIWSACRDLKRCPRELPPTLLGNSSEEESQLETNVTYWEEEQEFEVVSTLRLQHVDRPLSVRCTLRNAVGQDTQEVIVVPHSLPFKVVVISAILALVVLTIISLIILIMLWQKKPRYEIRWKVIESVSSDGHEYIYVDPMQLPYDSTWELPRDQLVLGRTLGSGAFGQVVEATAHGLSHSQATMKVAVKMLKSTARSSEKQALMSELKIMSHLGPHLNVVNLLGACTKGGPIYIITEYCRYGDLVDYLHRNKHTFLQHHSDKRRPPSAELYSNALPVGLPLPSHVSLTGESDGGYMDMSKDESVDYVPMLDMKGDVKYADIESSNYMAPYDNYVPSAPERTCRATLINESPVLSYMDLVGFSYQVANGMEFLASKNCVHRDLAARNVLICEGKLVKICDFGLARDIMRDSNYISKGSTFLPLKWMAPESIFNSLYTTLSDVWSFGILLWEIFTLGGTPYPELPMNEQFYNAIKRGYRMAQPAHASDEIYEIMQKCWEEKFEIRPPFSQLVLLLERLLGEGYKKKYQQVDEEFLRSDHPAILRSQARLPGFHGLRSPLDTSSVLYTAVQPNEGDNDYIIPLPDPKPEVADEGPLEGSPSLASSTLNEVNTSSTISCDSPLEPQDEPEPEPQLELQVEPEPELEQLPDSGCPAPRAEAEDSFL

{"COMPOUND": "Cn1nc(NC(=O)CNc2ccc(-c3cnc4cnccn34)cc2)cc1C(F)(F)F", "IC50": "< 500 nM"}
{"COMPOUND": "CC(Oc1ccc(-c2cnc3cnccn23)cn1)C(=O)Nc1cc(C(F)(F)F)c(Cl)cn1 (stereo not drawn)", "IC50": "500 to 5000 nM"}
{"COMPOUND": "O=C(CNc1ccc(-c2cnc3cnccn23)cc1)Nc1cc(C(F)(F)F)c(Cl)cn1", "IC50": "< 500 nM"}
{"COMPOUND": "O=C(Nc1cc(C(F)(F)F)c(Cl)cn1)C1(Oc2ccc(-c3cnc4cnccn34)cn2)CC1", "IC50": "> 5000 nM"}

# input compound: Cn1nc(NC(=O)COc2ccc(-c3cnc4ccccn34)cn2)cc1C(F)(F)F ; wanted: its IC50
< 500 nM

Request: Cc1ccc(NC(=O)CNc2ccc(-c3cnc4cnccn34)cc2)cc1C(F)(F)F
< 500 nM

Request: Cc1ccc(NC(=O)c2ccc(Nc3cnc4cnccn34)cc2)cc1C(F)(F)F
> 5000 nM

Request: Cn1nc(NC(=O)CNc2ccc(-c3cnc4cnccn34)c(F)c2)cc1C(F)(F)F
< 500 nM

Request: Cn1nc(NC(=O)COc2ccc(-c3cnn4cccnc34)cc2)cc1C(F)(F)F
< 500 nM

====

biological target: PDGFR-α (Homo sapiens, UniProt P16234); assay: In vitro kinase assay ([γ-33P]-ATP); format: biochemical; conditions: ATP at apparent Km of the kinase
Sequence (P16234 24-1089): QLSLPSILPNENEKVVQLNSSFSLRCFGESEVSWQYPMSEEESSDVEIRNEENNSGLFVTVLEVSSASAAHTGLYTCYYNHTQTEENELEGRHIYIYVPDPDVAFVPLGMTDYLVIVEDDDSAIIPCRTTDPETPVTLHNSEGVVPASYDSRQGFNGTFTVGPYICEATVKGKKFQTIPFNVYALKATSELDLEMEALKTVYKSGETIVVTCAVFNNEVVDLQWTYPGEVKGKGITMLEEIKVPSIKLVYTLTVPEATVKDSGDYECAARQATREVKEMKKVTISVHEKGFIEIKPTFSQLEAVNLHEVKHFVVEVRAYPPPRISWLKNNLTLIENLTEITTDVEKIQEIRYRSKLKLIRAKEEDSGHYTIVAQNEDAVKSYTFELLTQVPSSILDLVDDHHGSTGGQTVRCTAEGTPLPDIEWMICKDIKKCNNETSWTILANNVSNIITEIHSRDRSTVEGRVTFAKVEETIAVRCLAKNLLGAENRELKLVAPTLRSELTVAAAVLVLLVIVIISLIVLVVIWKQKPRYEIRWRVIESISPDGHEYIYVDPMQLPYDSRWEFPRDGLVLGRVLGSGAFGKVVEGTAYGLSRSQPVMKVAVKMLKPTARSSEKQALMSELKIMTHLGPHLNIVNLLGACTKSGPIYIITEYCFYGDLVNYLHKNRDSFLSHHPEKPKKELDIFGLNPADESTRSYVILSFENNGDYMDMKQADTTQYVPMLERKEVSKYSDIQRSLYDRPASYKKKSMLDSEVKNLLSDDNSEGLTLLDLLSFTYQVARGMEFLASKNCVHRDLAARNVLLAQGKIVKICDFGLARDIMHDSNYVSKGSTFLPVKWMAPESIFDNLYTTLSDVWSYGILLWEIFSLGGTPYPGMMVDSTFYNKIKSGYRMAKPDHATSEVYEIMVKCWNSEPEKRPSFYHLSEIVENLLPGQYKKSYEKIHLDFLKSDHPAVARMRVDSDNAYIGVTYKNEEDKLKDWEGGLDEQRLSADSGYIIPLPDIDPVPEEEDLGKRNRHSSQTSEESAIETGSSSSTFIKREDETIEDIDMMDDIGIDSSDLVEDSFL
Listed here: items and their measured IC50.

{"MOLECULE": "Cn1nc(NC(=O)CNc2ccc(-c3cnc4cnccn34)cc2)cc1C(F)(F)F [Example 17]", "IC50": "< 500 nM"}

# input molecule: Cn1nc(NC(=O)COc2ccc(-c3cnn4cccnc34)cc2)cc1C(F)(F)F [Example 19] ; wanted: its IC50
< 500 nM

Request: Cc1ccc(NC(=O)CNc2ccc(-c3cnc4cnccn34)cc2)cc1C(F)(F)F [Example 15]
< 500 nM

Request: Cn1nc(NC(=O)CNc2ccc(-c3cnc4cnccn34)c(F)c2)cc1C(F)(F)F [Example 18]
< 500 nM

Request: O=C(CNc1ccc(-c2cnc3cnccn23)cc1)Nc1cc(C(F)(F)F)c(Cl)cn1 [Example 16]
< 500 nM

Request: O=C(Nc1cc(C(F)(F)F)c(Cl)cn1)C1(Oc2ccc(-c3cnc4cnccn34)cn2)CC1 [Example 12]
> 5000 nM

Request: CC(Oc1ccc(-c2cnc3cnccn23)cn1)C(=O)Nc1cc(C(F)(F)F)c(Cl)cn1 (stereo not drawn) [Example 13]
500 to 5000 nM

Request: Cn1nc(NC(=O)COc2ccc(-c3cnc4ccccn34)cn2)cc1C(F)(F)F [Example 1]
< 500 nM

Request: Cc1ccc(NC(=O)c2ccc(Nc3cnc4cnccn34)cc2)cc1C(F)(F)F [Example 14]
> 5000 nM

====

Target: Flt3 (Homo sapiens, UniProt P36888)
Sequence (P36888 27-993): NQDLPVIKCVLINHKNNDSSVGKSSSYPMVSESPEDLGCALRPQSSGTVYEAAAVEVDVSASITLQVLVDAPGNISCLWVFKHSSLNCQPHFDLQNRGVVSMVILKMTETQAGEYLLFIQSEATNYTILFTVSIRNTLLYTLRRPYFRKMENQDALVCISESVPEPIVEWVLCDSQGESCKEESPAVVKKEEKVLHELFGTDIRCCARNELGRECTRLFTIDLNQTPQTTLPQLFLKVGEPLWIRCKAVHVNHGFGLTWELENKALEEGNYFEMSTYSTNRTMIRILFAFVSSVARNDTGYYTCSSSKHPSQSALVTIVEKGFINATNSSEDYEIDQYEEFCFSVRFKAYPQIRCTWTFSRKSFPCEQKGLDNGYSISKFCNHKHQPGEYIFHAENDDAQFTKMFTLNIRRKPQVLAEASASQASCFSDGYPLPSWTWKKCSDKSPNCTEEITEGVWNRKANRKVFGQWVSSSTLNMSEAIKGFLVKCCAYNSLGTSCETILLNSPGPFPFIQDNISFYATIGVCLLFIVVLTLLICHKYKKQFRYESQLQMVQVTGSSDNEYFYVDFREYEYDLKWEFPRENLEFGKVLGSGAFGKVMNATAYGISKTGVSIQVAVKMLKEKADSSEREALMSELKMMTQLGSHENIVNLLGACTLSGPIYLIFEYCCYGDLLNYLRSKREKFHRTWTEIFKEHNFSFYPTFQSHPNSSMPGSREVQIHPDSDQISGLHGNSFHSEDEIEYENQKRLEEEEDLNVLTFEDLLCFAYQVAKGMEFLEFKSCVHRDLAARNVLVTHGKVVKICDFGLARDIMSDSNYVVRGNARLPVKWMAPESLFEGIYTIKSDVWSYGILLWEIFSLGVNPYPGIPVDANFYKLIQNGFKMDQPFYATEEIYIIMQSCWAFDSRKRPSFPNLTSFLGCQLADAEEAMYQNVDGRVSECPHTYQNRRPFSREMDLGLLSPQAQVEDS
Experiment: In vitro kinase assay ([γ-33P]-ATP)
Type: biochemical
Settings: ATP at apparent Km of the kinase
MEASURED_PARAMETER: IC50

Worked cases, answers included:
{"RECORD_SMILES": "Cn1nc(NC(=O)COc2ccc(-c3cnc4ccccn34)cn2)cc1C(F)(F)F", "IC50": "< 500 nM"}
{"RECORD_SMILES": "Cn1nc(NC(=O)CNc2ccc(-c3cnc4cnccn34)c(F)c2)cc1C(F)(F)F", "IC50": "< 500 nM"}
{"RECORD_SMILES": "Cn1nc(NC(=O)COc2ccc(-c3cnn4cccnc34)cc2)cc1C(F)(F)F", "IC50": "< 500 nM"}

Give Flt3 (Homo sapiens, UniProt P36888) IC50 for O=C(Nc1cc(C(F)(F)F)c(Cl)cn1)C1(Oc2ccc(-c3cnc4cnccn34)cn2)CC1
> 5000 nM

Request: O=C(CNc1ccc(-c2cnc3cnccn23)cc1)Nc1cc(C(F)(F)F)c(Cl)cn1
< 500 nM

Attribution: patent US20220242863A1
